B1: CPEB3 Ribozyme (parent)
chain: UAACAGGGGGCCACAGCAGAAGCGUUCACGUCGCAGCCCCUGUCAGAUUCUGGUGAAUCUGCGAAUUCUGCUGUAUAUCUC

# Variants of: B1
# testDetails: self-cleavage, relative activity (ratio to wild type); higher = more cleavage; in vitro, sequencing
self-cleavage: recorded values
Answer field: number only, no words.

Looking for the measured self-cleavage of UAACAAGGGGCCACAGCAGAAGCGUUCACGUCGCAGCCCCUGUCAGAUUCUGGUGAAUCUGCGAAUUCUGCUGUUUAUCUC [G6A A75U] , can you help?
0.51

Then what about the variant UAACAGGGGGCCACAGCAGAAGCGUUCACGUCGCAGCCCCUGUCAGAUUUUGGUGAAUCUGCGAAUUCUGCUGUAUAUCUC [C50U] ?
1.01

Then what about the variant CAACACGGGGCCACAGCAGAAGCGUUCACGUCGCAGCCCCUGUCAGAUUCUGGUGAAUCUGCGAAUUCUGCUGUAUAUCUC [U1C G6C] ?
0.56

Then what about the variant UAACAAGGGGCCACAGCAGAAGCGUUCACGUCGCAGCCCCUGUCAGAUCCUGGUGAAUCUGCGAAUUCUGCUGUAUAUCUC [G6A U49C] ?
0.15

Then what about the variant UAACAGGGGGCGACAGCAGAAGCGUUCACGUCGCAGCCCCCGUCAGAUUCUGGUGAAUCUGCGAAUUCUGCUGUAUAUCUC [C12G U41C] ?
1.09

Then what about the variant UAAUAGGGGGCCACAGCAGAAGCGUUCACGUCGCAGGCCCUGUCAGAUUCUGGUGAAUCUGCGAAUUCUGCUGUAUAUCUC [C4U C37G] ?
0.9

Then what about the variant UAACGGGGGGCCACUGCAGAAGCGUUCACGUCGCAGCCCCUGUCAGAUUCUGGUGAAUCUGCGAAUUCUGCUGUAUAUCUC [A5G A15U] ?
0.61

Then what about the variant UAACAGGGGGCCACAGCAGAAGCGCUCACGUCGCAGCCCCUGUCAGAUUCUAGUGAAUCUGCGAAUUCUGCUGUAUAUCUC [U25C G52A] ?
0.26

Then what about the variant UAACAGGGGGCCAUAGCAGAAGCGUUCACGUCGCAGCCCCUGUCAGAUUCUGGUGAAUCUGCGAAUUCUGCUGUAUGUCUC [C14U A77G] ?
1.34

Then what about the variant UAACAGGGGGCCACAGCAGGAGCGUUCACGUCGCAGCCCCUGUCAGAUUCUGGGGAAUCUGCGAAUUCUGCUGUAUAUCUC [A20G U54G] ?
0.52

Then what about the variant UAACAGGGGGCCACAGCAUGAGCGUUCACGUCGCAGCCCCUGUCAGAUUCUGGUGAAUCUGCGAAUUCUGCUGUAUAUCUC [G19U A20G] ?
0.29
